All values here come from patent US12344610B2.

tested on: Trypanosoma brucei Lister 427 VSG221 with APOL1 G1 recombinant protein; test: APOL1 G1 trypanosome cell rescue assay (Example B5); format: cell-based; settings: Trypanosoma brucei, 20 h, read-out: APOL1 G1 Trypanosome Rescue EC50, Trypanosoma brucei Lister 427 VSG221 with APOL1 G1 recombinant protein, 20 hours, CellTiter-Glo; geometric mean of at least 2 assay runs; † = single assay run
pEC50: −log10 of the molar value.
// reported pEC50 per item

compound | measurementQualifier | pEC50
CN1C(=O)Cc2cc(OCCN3CCC4(CC3)C(=O)Nc3ccc(C#N)cc34)cc(F)c21 | = | 6.04
N#Cc1ccc2c(c1)C1(CCN(CCOc3ccc(C(N)=O)c(C(F)F)c3)CC1)C(=O)N2 | = | 6.17
CC(COc1ccc2c(c1)CCC(=O)N2C)N1CCC2(CC1)C(=O)Nc1ccc(C#N)cc12 (single isomer, unassigned) | = | 6.23
COCCN1C(=O)C2(CCN(CCOc3ccc(S(C)(=O)=O)cc3)CC2)c2cc(C#N)ccc21 | < | 5.40
CN1C(=O)CCc2cc(OCCN3CCC4(CC3)C(=O)Nc3ccc(C#N)cc34)ccc21 | = | 6.15
C[C@]1(O)C[C@@H](N2C(=O)CCc3cc(OCCN4CCC5(CC4)C(=O)Nc4ccc(OC(F)F)cc45)cnc32)C1 | = | 6.57
Cn1c(=O)[nH]c2cc(OCCN3CCC4(CC3)C(=O)Nc3ccc(Cl)cc34)cnc21 | = | 6.61

* * *

tested on: HEK293 clonal cell line overexpressing APOL1 G1; assay: APOL1 G1 HEK293 cell rescue assay (Example B3); assay type: cell-based; conditions: Homo sapiens, HEK293, HEK293 clonal line overexpressing APOL1 G1; geometric mean of at least 2 runs; † = single run; ¥ = concentration at 50% rescue estimated (no sigmoidal curve)
pEC50: −log10 of the molar value.
Tag: True if measured pEC50 is not below 7, False if it is.

molecule | assignedClass
CC[C@]1(O)C[C@@H](N2C(=O)CCc3cc(OCCN4CCC5(CC4)C(=O)Nc4ccc(Cl)cc45)cnc32)C1 (single isomer, unassigned) | True
CC(=O)c1ncc(OCCN2CCC3(CC2)C(=O)Nc2ccc(C#N)cc23)cc1C(F)(F)F | False
CN1C(=O)C2(CCN(CCOc3ccc4c(c3)CCN(S(C)(=O)=O)C4)CC2)c2ccccc21 | False
CN1C(=O)C2(CCN(CCOc3ccc(S(C)(=O)=O)cc3)CC2)c2ccccc21 | False

* * *

Test system: HEK293 clonal cell line overexpressing APOL1 G1
Assay: APOL1 G1 HEK293 cell rescue assay (Example B3)
Format: cell-based
Conditions: Homo sapiens, HEK293, HEK293 clonal line overexpressing APOL1 G1; geometric mean of at least 2 runs; † = single run; ¥ = concentration at 50% rescue estimated (no sigmoidal curve)
Procedure: Compounds were also assayed in a HEK293 clonal cell line overexpressing APOL1 G1 by a method similar to that shown in Example B2 above. Unless otherwise specified, EC50 values are reported as the geometric mean of at least 2 assay runs on separate days. Each run represents the average of a technical replicate, where each compound was assayed twice in the same plate. […]
pEC50: −log10 of the molar value.
measurementLabel: pEC50

molecule | result
O=C1Nc2ccc(Cl)cc2C12CCN(CCOc1ccc3[nH]ncc3c1)CC2 [Compound 87] | 6.55
C[C@]1(O)C[C@@H](n2cnc3cc(OCCN4CCC5(CC4)C(=O)Nc4ccc(C#N)cc45)cc(C(F)(F)F)c32)C1 [Compound 433] | 7.53
CN1C(=O)C2(CCN(CCOc3ccc(N4CCCC4=O)cc3)CC2)c2ccccc21 [Compound 37] | 6.16
C[C@]1(O)C[C@@H](n2ccc3cc(OCCN4CCC5(CC4)C(=O)Nc4ccc(Cl)cc45)cnc32)C1 [Compound 349] | 7.13
CS(=O)(=O)N1CC2(CN(C(=O)c3ccc(OCCN4CCC5(CC4)C(=O)Nc4ccc(Cl)cc45)cc3F)C2)C1 [Compound 273] | 6.69
CS(=O)(=O)N1CCC(c2ccc(OCCN3CCC4(CC3)C(=O)Nc3ccc(Cl)cc34)cc2)CC1 [Compound 444] | 7.14
CS(=O)(=O)C1CN(C(=O)c2ccc(OCCN3CCC4(CC3)C(=O)Nc3ccc(Cl)cc34)cc2F)C1 [Compound 233] | 6.61

* * *

// reported log10 of EC50 per item
tested on: HEK293 clonal cell line overexpressing APOL1 G1; test: APOL1 G1 HEK293 cell rescue assay (Example B3); assay type: cell-based; conditions: Homo sapiens, HEK293, HEK293 clonal line overexpressing APOL1 G1; geometric mean of at least 2 runs; † = single run; ¥ = concentration at 50% rescue estimated (no sigmoidal curve)
measurementLabel: log10 of EC50 (log10 of the value in nM)

compound | targetUnderTest | result
CC(C)[C@]1(O)C[C@@H](N2C(=O)CCc3cc(OCCN4CCC5(CC4)C(=O)Nc4ccc(Cl)cc45)cnc32)C1 | HEK293 clonal cell line overexpressing APOL1 G1 | 1.66
O=C1CCc2cc(OCCN3CCC4(CC3)C(=O)Nc3ccc(Cl)cc34)cnc2N1 | HEK293 clonal cell line overexpressing APOL1 G1 | 2.29
CS(=O)(=O)C1(c2ccc(OCCN3CCC4(CC3)C(=O)Nc3ccc(C#N)cc34)cc2)CCOCC1 | HEK293 clonal cell line overexpressing APOL1 G1 | 3.10
CS(=O)(=O)C1(c2ncc(OCCN3CCC4(CC3)C(=O)Nc3ccc(C#N)cc34)cc2F)CC1 | HEK293 clonal cell line overexpressing APOL1 G1 | 2.32
[2H]C([2H])(Oc1cnc2c(c1)CCC(=O)N2[C@H]1C[C@@](C)(O)C1)C([2H])([2H])N1CCC2(CC1)C(=O)Nc1ccc(Cl)cc12 | HEK293 clonal cell line overexpressing APOL1 G1 | 1.90
O=C1OC2(COC2)c2ccc(OCCN3CCC4(CC3)C(=O)Nc3ccc(Cl)cc34)cc21 | HEK293 clonal cell line overexpressing APOL1 G1 | 2.68
CC(C)(O)CN1C(=O)CCc2cc(OCCN3CCC4(CC3)C(=O)Nc3ccc(Cl)cc34)cnc21 | HEK293 clonal cell line overexpressing APOL1 G1 | 1.93
O=C1CCc2cc(OCCN3CCC4(CC3)C(=O)Nc3ccc(Cl)cc34)ccc2N1 | HEK293 clonal cell line overexpressing APOL1 G1 | 2.40
O=C1Nc2ccc(Cl)cc2C12CCN(CCOc1cnc(C3(CO)CC3)nc1)CC2 | HEK293 clonal cell line overexpressing APOL1 G1 | 1.99
CS(=O)(=O)CCCS(=O)(=O)c1ccc(OCCN2CCC3(CC2)C(=O)Nc2ccc(Cl)cc23)cc1 | HEK293 clonal cell line overexpressing APOL1 G1 | 2.49
O=C1CCc2cc(OCCN3CCC4(CC3)C(=O)Nc3ccc(Cl)cc34)cnc2N1C1CC(O)(C2CC2)C1 (stereo not drawn) | HEK293 clonal cell line overexpressing APOL1 G1 | 1.80
C[C@@H](CN1CCC2(CC1)C(=O)Nc1ccc(Cl)cc12)Oc1ccc(S(C)(=O)=O)cc1 (single isomer, unassigned) | HEK293 clonal cell line overexpressing APOL1 G1 | 3.36
C[C@]1(O)C[C@@H](n2cnc3cc(OCCN4CCC5(CC4)C(=O)Nc4ccc(C#N)cc45)cc(OC(F)F)c32)C1 | HEK293 clonal cell line overexpressing APOL1 G1 | 2.84
O=C(c1ccc(OCCN2CCC3(CC2)C(=O)Nc2ccc(Cl)cc23)cc1F)N1CC2(C1)CS(=O)(=O)C2 | HEK293 clonal cell line overexpressing APOL1 G1 | 2.28
CS(=O)(=O)c1ccc(OCCN2CCC3(CC2)C(=O)Nc2ccc(Cl)cc23)cc1C#N | HEK293 clonal cell line overexpressing APOL1 G1 | 1.96

* * *

System: Trypanosoma brucei Lister 427 VSG221 with APOL1 G1 recombinant protein
Test: APOL1 G1 trypanosome cell rescue assay (Example B5)
Format: cell-based
Settings: Trypanosoma brucei, 20 h, read-out: APOL1 G1 Trypanosome Rescue EC50, Trypanosoma brucei Lister 427 VSG221 with APOL1 G1 recombinant protein, 20 hours, CellTiter-Glo; geometric mean of at least 2 assay runs; † = single assay run
Excerpt: APOL1 G0/G1/G2 viability assay for measurement of cytotoxicity reversal by compound in trypanosomes (APOL1 G0/G1/G2 trypanosome cell rescue assay). APOL1 protein expression and purification. […] Assay Setup. […] Assay ready plates were generated with duplicate 11-point compound dilution series that consisted of 2-fold stepwise dilutions (0.4% DMSO final). […] Trypanosomes were counted using a hemacytometer and diluted in modified HMI-9 media to a concentration of 1.25×10^4 cell/mL. […]
pEC50: −log10 of the molar value.

compound | pEC50
C[C@@H](COc1ccc(S(C)(=O)=O)cc1)N1CCC2(CC1)C(=O)Nc1ccccc12 (single isomer, unassigned) | 5.71
CS(=O)(=O)C1(c2ccc(OCCN3CCC4(CC3)C(=O)Nc3ccc(Cl)cc34)cc2)COC1 | 7.13
C[C@]1(O)C[C@@H](n2c(=O)n(CO)c3cc(OCCN4CCC5(CC4)C(=O)Nc4ccc(C#N)cc45)cc(C(F)(F)F)c32)C1 | 7.81
